Molecular target: Human M4 (Homo sapiens, UniProt P08173)
Construct: Human or rat M4 cDNA, along with the chimeric G protein Gq,5, were transfected into Chinese hamster ovary (CHO-K1) cells
Sequence (P08173 whole entry): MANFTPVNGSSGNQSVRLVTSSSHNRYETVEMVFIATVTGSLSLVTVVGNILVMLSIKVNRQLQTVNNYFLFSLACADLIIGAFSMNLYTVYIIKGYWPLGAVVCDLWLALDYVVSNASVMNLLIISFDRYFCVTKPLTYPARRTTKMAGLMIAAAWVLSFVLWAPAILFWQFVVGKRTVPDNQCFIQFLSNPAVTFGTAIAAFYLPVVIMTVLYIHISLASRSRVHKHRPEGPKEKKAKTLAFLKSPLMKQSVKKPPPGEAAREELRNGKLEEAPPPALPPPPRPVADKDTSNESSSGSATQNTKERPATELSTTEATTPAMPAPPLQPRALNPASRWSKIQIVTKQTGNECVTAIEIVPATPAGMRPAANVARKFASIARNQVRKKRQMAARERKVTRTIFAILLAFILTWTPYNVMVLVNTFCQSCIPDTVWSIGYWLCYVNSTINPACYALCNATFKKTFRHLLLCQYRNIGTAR
Assay: mAChR M4 cell-based functional assay (calcium flux, decrease of EC80 acetylcholine response)
Conditions: CHO-K1 cells with human M4 and Gqi5; EC80 acetylcholine
Method: Human or rat M4 cDNA, along with the chimeric G protein Gq,5, were transfected into Chinese hamster ovary (CHO-K1) cells purchased from the American Type Culture Collection using Lipofectamine2000. […] Calcium flux was measured using the Functional Drug Screening System (FDSS) 6000 or 7000 (Hamamatsu Corporation, Tokyo, Japan) as an increase in the fluorescent static ratio. […] Agonist activity was analyzed as a concentration-dependent increase in calcium mobilization upon compound addition. […]
pIC50: −log10 of the molar value.
Please use yes whenever pIC50 is not below 8, and no whenever it is.

Ask: Is the recorded value of pIC50 equal to or greater than 8 for this compound? Fc1cc(F)c(F)c(-c2ccc(N[C@H]3C[C@@H]4CN(C5CCCCCC5)C[C@@H]4C3)nn2)c1 [Compound 6]
Reply: no

Ask: Can you check CC(C)(C)OCCN1C[C@H]2C[C@H](Nc3ccc(-c4cc(F)cc(F)c4F)nn3)C[C@H]2C1 [Compound 53] next?
Reply: yes

Ask: Can you check O=S1(=O)CCC(CN2C[C@H]3C[C@H](Nc4ccc(-c5cc(F)cc(F)c5F)nn4)C[C@H]3C2)CC1 [Compound 69] next?
Reply: yes

Ask: Can you check Cc1cccnc1CN1C[C@H]2C[C@H](Nc3ccc(-c4cc(F)cc(F)c4F)nn3)C[C@H]2C1 [Compound 23] next?
Reply: no

Ask: Can you check Fc1cc(F)c(F)c(-c2ccc(N[C@H]3C[C@@H]4CN(CC5CCCCO5)C[C@@H]4C3)nn2)c1 (single isomer, unassigned) [Compound 26] next?
Reply: yes

Ask: Can you check Fc1cc(F)c(F)c(-c2ccc(N[C@H]3C[C@@H]4CN(Cc5ccnnc5)C[C@@H]4C3)nn2)c1 [Compound 38] next?
Reply: no

Ask: Can you check Fc1ccc(CN2C[C@H]3C[C@H](Nc4ccc(-c5cc(F)cc(F)c5F)nn4)C[C@H]3C2)nc1 [Compound 21] next?
Reply: no

Ask: Can you check Fc1cc(F)c(F)c(-c2ccc(N[C@H]3C[C@@H]4CN(Cc5cccc(F)n5)C[C@@H]4C3)nn2)c1 [Compound 22] next?
Reply: no

Ask: Can you check [2H]C([2H])([C@@H]1COCCO1)N1C[C@H]2C[C@H](Nc3ccc(-c4cc(F)cc(F)c4F)nn3)C[C@H]2C1 [Compound 42] next?
Reply: no

Ask: Can you check CC1(C)CC(N2C[C@H]3C[C@H](Nc4ccc(-c5cc(F)cc(F)c5F)nn4)C[C@H]3C2)CC(C)(C)O1 [Compound 7] next?
Reply: no

Ask: Can you check [2H]C([2H])(CCOC)N1C[C@H]2C[C@H](Nc3ccc(-c4cc(F)cc(F)c4F)nn3)C[C@H]2C1 [Compound 80] next?
Reply: no

###

target: Human M4 (Homo sapiens, UniProt P08173); construct: Human or rat M4 cDNA, along with the chimeric G protein Gq,5, were transfected into Chinese hamster ovary (CHO-K1) cells; expressed in transfected cells; host or cells: CHO-K1 (M4/Gqi5/CHO); experiment: mAChR M4 cell-based functional assay (calcium flux, decrease of EC80 acetylcholine response); conditions: % ACh maximum at 30 μM
Please use fulfilled whenever Human M4 Emin is not below 3%, and not fulfilled whenever it is.

Ask: Is the recorded value of Human M4 Emin equal to or greater than 3% for this compound? COCCCN1C[C@H]2C[C@H](Nc3ccc(-c4cc(F)cc(F)c4F)nn3)C[C@H]2C1
Reply: fulfilled

Ask: Can you check [2H]C([2H])(N1C[C@H]2C[C@H](Nc3ccc(-c4cc(F)cc(F)c4F)nn3)C[C@H]2C1)C1(OC)CCCOC1 (some centres unmarked) next?
Reply: not fulfilled

Ask: Can you check Fc1cc(F)c(F)c(-c2ccc(N[C@H]3C[C@@H]4CN(Cc5cccc(F)n5)C[C@@H]4C3)nn2)c1 next?
Reply: fulfilled

Ask: Can you check Fc1ccc(CN2C[C@H]3C[C@H](Nc4ccc(-c5cc(F)cc(F)c5F)nn4)C[C@H]3C2)nc1 next?
Reply: fulfilled

Ask: Can you check [2H]C([2H])([C@@H]1CCOC1)N1C[C@H]2C[C@H](Nc3ccc(-c4cc(F)cc(F)c4F)nn3)C[C@H]2C1 next?
Reply: not fulfilled

Ask: Can you check COc1cccc(CN2C[C@H]3C[C@H](Nc4ccc(-c5cc(F)cc(F)c5F)nn4)C[C@H]3C2)n1 next?
Reply: not fulfilled

Ask: Can you check Fc1cc(F)c(F)c(-c2ccc(N[C@H]3C[C@@H]4CN(Cc5cccc(F)c5F)C[C@@H]4C3)nn2)c1 next?
Reply: fulfilled

Ask: Can you check C[C@]12C[C@H](Nc3ccc(-c4cc(F)cc(F)c4F)nn3)C[C@H]1CN(CC1CCOCC1)C2 (racemic) next?
Reply: fulfilled

Ask: Can you check COc1ccc(OCCN2C[C@H]3C[C@H](Nc4ccc(-c5cc(F)cc(F)c5F)nn4)C[C@H]3C2)cc1 next?
Reply: not fulfilled

Ask: Can you check Cc1ccc(CN2C[C@H]3C[C@H](Nc4ccc(-c5cc(F)cc(F)c5F)nn4)C[C@H]3C2)nc1 next?
Reply: fulfilled

Ask: Can you check CC(C1CCOCC1)N1C[C@H]2C[C@H](Nc3ccc(-c4cc(F)cc(F)c4F)nn3)C[C@H]2C1 (some centres unmarked) next?
Reply: fulfilled

Ask: Can you check Fc1cc(F)c(F)c(-c2ccc(N[C@H]3C[C@@H]4CN(CC5CCOCC5)C[C@@H]4C3)nn2)c1 next?
Reply: fulfilled
